Test system: HS 578T breast
Assay: NCI-60 one-dose screen, 48 h (100 = growth as untreated, 0 = no growth, -100 = all killed)
Conditions: 10 µM unless noted
Compounds without any hit were thinned out: in the full panel of roughly 83,000, 20% have a hit. Activity calls are given as the source filed them. The calls were made as follows: active = growth percent below 10; inactive = the rest.
parameter measured: growth

Query block: Need growth, item O=C(Cc1ccc(/C=C/C(=O)c2nccs2)cc1)Nc1ccccc1
Result block: 88.5% (inactive)

Query block: Could you share which growth value was measured for COc1cc2nc(-c3ccc(Cl)cc3)cc(OCCCN3CCCCC3)c2cc1OC ?
Result block: 62.1% (inactive)

Query block: // lookup growth for Cc1c(C(=O)NCCC(=O)NO)sc2ncnc(Nc3ccc(NC(=O)Nc4cccc(C(F)(F)F)c4)cc3)c12
Result block: 93.5% (inactive)

Query block: Reported growth for Cc1nc(N)nc(N[C@@H](C)c2nc3cccc(NCc4ccc(C(=O)NO)cc4)c3c(=O)n2-c2ccccc2)n1 : what is it?
Result block: 72.1% (inactive)

Query block: Using the record for O=C1c2ccccc2C(=O)c2c([N+](=O)[O-])ccc(Cl)c21 , report its growth.
Result block: 98.8% (inactive)

Query block: Fill in: growth of N/C(=N\C(N)=N\c1nc2ccccc2s1)c1ccnc(Br)c1 is ___
Result block: 19.3% (inactive)

Query block: For the molecule shown here, COc1cccc(-c2nc3occn3c2-c2ccnc(NCCNS(=O)(=O)c3ccc(C(F)(F)F)cc3)n2)c1 , give the reported growth.
Result block: -23.5% (active)

Query block: If you can, please state the reported growth value of Cc1cc(C(=O)/C=C/c2ccc[nH]2)ccc1-n1ccc(C(F)(F)F)n1 .
Result block: 94.3% (inactive)

Query block: Look up growth for this molecule: Cc1c(C(=O)NCCC(=O)NO)sc2ncnc(Nc3ccc(F)c(Cl)c3)c12
Result block: 103% (inactive)
